- STUDY SYSTEM: Calcitonin-gene-related peptide receptor, CALCRL/RAMP1 (Homo sapiens, UniProt O60894+Q16602)
- Sequence (O60894 whole entry): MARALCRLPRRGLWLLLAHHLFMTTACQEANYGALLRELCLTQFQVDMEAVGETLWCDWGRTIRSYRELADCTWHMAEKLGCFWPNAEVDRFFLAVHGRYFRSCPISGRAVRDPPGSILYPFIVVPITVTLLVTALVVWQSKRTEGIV
- Sequence (Q16602 whole entry): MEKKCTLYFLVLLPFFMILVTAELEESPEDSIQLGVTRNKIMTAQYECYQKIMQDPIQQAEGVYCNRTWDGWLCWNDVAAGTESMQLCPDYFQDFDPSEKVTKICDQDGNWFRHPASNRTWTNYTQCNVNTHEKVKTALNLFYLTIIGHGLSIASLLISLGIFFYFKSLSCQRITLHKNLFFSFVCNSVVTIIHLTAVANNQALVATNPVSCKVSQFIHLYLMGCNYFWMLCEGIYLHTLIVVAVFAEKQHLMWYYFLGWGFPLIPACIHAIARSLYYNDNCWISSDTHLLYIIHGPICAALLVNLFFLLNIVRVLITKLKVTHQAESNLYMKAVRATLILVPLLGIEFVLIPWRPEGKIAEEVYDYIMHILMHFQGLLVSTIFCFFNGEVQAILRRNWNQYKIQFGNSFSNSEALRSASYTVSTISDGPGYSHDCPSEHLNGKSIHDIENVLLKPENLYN
- METHOD SUMMARY: Displacement of [125I]CGRP from human cloned CLR/RAMP1 receptor expressed in E10 cells
pKi: −log10 of the molar value.
The entries below come with measured pKi values attached.

>  <COMPOUND>
CN1C(=O)[C@H](NC(=O)N2CCC(N3Cc4ccccc4NC3=O)CC2)N=C(c2ccccc2)c2ccccc21

>  <INEQUALITY SYMBOL>
=

>  <pKi>
5.66

$$$$
>  <COMPOUND>
CN1C(=O)[C@H](NC(=O)Nc2ccc3c(c2)CCC2(C3)NC(=O)NC2=O)N=C(c2ccccc2)c2ccccc21 (stereo not given in full)

>  <INEQUALITY SYMBOL>
=

>  <pKi>
5.37

$$$$
>  <COMPOUND>
O=C(N[C@@H]1N=C(c2ccccc2)c2ccccc2N(CC(F)(F)F)C1=O)N1CCC(N2Cc3ccccc3NC2=O)CC1

>  <INEQUALITY SYMBOL>
=

>  <pKi>
7.36

$$$$
>  <COMPOUND>
CN1C(=O)C(NC(=O)N2CCC(n3c(=O)[nH]c4ccccc43)CC2)N=C(c2ccccc2)c2ccccc21 (racemic)

>  <INEQUALITY SYMBOL>
<

>  <pKi>
4.89

$$$$
>  <COMPOUND>
CCN1C(=O)[C@H](NC(=O)N2CCC(N3Cc4ccccc4NC3=O)CC2)N=C(c2ccccc2)c2ccccc21

>  <INEQUALITY SYMBOL>
=

>  <pKi>
6.05

$$$$
>  <COMPOUND>
O=C(N[C@@H]1N=C(c2ccccc2)c2ccccc2N(CC(F)(F)F)C1=O)N1CCC(N2CCc3ccccc3NC2=O)CC1

>  <INEQUALITY SYMBOL>
=

>  <pKi>
7.21

$$$$
>  <COMPOUND>
O=C(N[C@@H]1N=C(c2ccccc2)c2ccccc2N(CC(F)(F)F)C1=O)N1CCC(n2c(=O)[nH]c3ccccc32)CC1

>  <INEQUALITY SYMBOL>
=

>  <pKi>
5.63

$$$$
>  <COMPOUND>
CN1C(=O)[C@@H](NC(=O)N2CCC(N3Cc4ccccc4NC3=O)CC2)N=C(c2ccccc2)c2ccccc21

>  <INEQUALITY SYMBOL>
=

>  <pKi>
5.08

$$$$
>  <COMPOUND>
O=C(N[C@H](Cc1cc(Br)c(O)c(Br)c1)C(=O)N1CCN(c2ccccc2)CC1)N1CCC(n2c(O)nc3ccccc32)CC1

>  <INEQUALITY SYMBOL>
=

>  <pKi>
7.08

$$$$
>  <COMPOUND>
CC(C)N1C(=O)C(NC(=O)N2CCC(N3Cc4ccccc4NC3=O)CC2)N=C(c2ccccc2)c2ccccc21 (racemic)

>  <INEQUALITY SYMBOL>
=

>  <pKi>
5.97

$$$$

Attribution: ChEMBL document CHEMBL1147686
